System: SF-268 CNS
PROTOCOL_DESCRIPTION: NCI tumour cell line growth inhibition, 48 h
Reported GI50 is given for each of the following compounds.

Field: example entries. Status: answers known.
Can you look up the measured GI50 of [N-]=[N+]=NCCCn1c2c(c3ccc([N+](=O)[O-])cc3c1=O)C(=O)c1cc(-c3ccccc3)ccc1-2 for me?
> 100 µM

Another: Cc1ccc(Cl)c(NS(=O)(=O)c2ccc(-c3cnc(C4CC4)o3)cc2)c1
3.33 µM

Another: C#CC1(O)C(COP(=O)(O)OCC2OC(n3cc(F)c(=O)[nH]c3=O)CC2O)OC(n2ccc(N)nc2=O)C1O (centres undefined)
< 0.01 µM

Another: N=C(N)c1ccc(-c2ccc(-c3ccc4ccccc4c3)s2)s1
2.25 µM

Another: O=C(Nc1cc(Cl)cc(Cl)c1)c1cccc(NC2=C(Cl)C(=O)N(Cc3ccccc3)C2=O)c1
42.7 µM

Another: O=C1Cc2cc(CCn3cncn3)c(Cl)cc2N1
59.6 µM

Another: CCN1C(=O)N(CC)C2C1NN=c1s/c(=C3\C(=O)N(C4CCCC4)c4ccccc43)c(=O)n12 (centres undefined)
2.38 µM

Another: CCCCCCCCCCCCN=C(N)c1ccc(N2CCN(c3ccc(C(N)=NCCCCCCCCCCCC)cc3)CC2)cc1
9.84 µM

***
Can you look up the measured GI50 of COc1cc(-c2nc3ccccc3o2)cc(CN2CCCCC2)c1O for me?
5.12 µM

====

System: DU-145 prostate
PROTOCOL_DESCRIPTION: NCI tumour cell line growth inhibition, 48 h; in the data active = GI50 below about 0.43 µM; inactive = the rest
Lab note: assign the record to one of true (1) (active), false (0) (inactive)

// known answers, use as guide
Could you check what this test reported for COc1ccc(C2C(C#N)=C(N)Oc3c2sc2c(Br)cccc32)cc1 (stereo not given) ?
false (0)

Another: CCCCCCCCCCNCCSS(=O)(=O)O
false (0)

***
Could you check what this test reported for C=C1C(=O)O[C@H]2[C@H]1CC/C(COC(=O)/C=C\C(=O)NCc1ccc(Cn3c(=O)sn(CCI)c3=O)cc1)=C\CC[C@@]1(C)O[C@@H]21 ?
false (0)

Another: COc1ccc(C(=O)c2cc3c(N)c(C(=O)Nc4cccc(Br)c4C)sc3nc2C)cc1
true (1)

Another: O=C(Nc1cc(Cl)ccc1O)c1ccccc1Nc1ccnc(C(F)(F)F)c1
false (0)

Another: Cn1cc(C2=C(c3cn(CCCN)c4ccccc34)C(=O)NC2=O)c2ccccc21
false (0)

Another: CCOc1ccc(C(C[N+](=O)[O-])Sc2ccccc2N)cc1 (stereo not given)
false (0)

Another: Clc1ccc2c(c1)N(C1CCCN(Cc3ccccc3)C1)c1ccccc1S2 (stereo not given)
false (0)

Another: O=C1C=C(OCC=C(C(F)(F)F)C(F)(F)F)c2ccccc2C1=O
false (0)

Another: CCN(CC)c1ccc(-c2cc(-c3cc(OC)c(OC)c(OC)c3)nc(N3CCC(O)CC3)c2C#N)cc1
false (0)

====

Test system: T-47D breast
PROTOCOL_DESCRIPTION: NCI tumour cell line growth inhibition, 48 h
Mark -1 for TGI values under 40 µM, and 1 for everything at or above.

// known answers, use as guide
Is TGI for COc1ccc2c(c1)/C(=C\c1c(-c3cc(OC)ccc3OC)nc3sccn13)C(=O)N2 at or above 40 µM?
-1

Another: O=C1OCC(c2ccc(Cl)cc2)=C1Cl
1

Another: Oc1[nH]c2ccccc2c1/C=c1/ccc2c(c1)N=C(c1ccc(C(F)(F)F)cc1)N=2
-1

***
Is TGI for CCCCCCCCCCNCCSS(=O)(=O)O at or above 40 µM?
-1

Another: COc1ccccc1/C=C1\S/C(=N/Nc2nc(C)c(C(C)=O)s2)NC1=O
1

====

System: RXF 393 renal
PROTOCOL_DESCRIPTION: NCI tumour cell line growth inhibition, 48 h; in the data active = GI50 below about 0.43 µM; inactive = the rest
Lab note: assign the record to one of Y = active, N = inactive

Could you check what this test reported for COc1ccc(-c2cc(-c3ccc(Cl)cc3)nc(NCCCCNc3ccnc4cc(Cl)ccc34)n2)cc1 ?
N

Another: COc1ccc(C2C(C#N)=C(N)Oc3c2sc2c(Br)cccc32)cc1 (stereo not drawn)
N

Another: O=C1Nc2ccccc2/C1=C\c1nc(-c2ccccc2F)n2ccccc12
N

***
Could you check what this test reported for Oc1[nH]c2ccccc2c1/C=c1/ccc2c(c1)N=C(c1ccc(C(F)(F)F)cc1)N=2 ?
N

Another: Cc1ccc(Cl)c(NS(=O)(=O)c2ccc(-c3cnc(C4CC4)o3)cc2)c1
Y

Another: O=C(/C=C/c1ccccn1)c1ccc(OCc2nnc(-c3ccc(Cl)cc3)o2)cc1
N

Another: O=C(Nc1cc(Cl)cc(Cl)c1)c1cccc(NC2=C(Cl)C(=O)N(Cc3ccccc3)C2=O)c1
N

Another: CCOc1ccc(C(C[N+](=O)[O-])Sc2ccccc2N)cc1 (stereo not drawn)
N

Another: CNC(=O)c1c(F)cccc1Nc1nc(Nc2cc3c(cc2OC)CCN3C(=O)CN(C)C)nc2[nH]ccc12
N

Another: Clc1ccc2c(c1)N(C1CCCN(Cc3ccccc3)C1)c1ccccc1S2 (stereo not drawn)
N

Another: c1ccc(Oc2ccc(Nc3ncc(-c4ccccc4)o3)cc2)cc1
N

Another: O=C1C=C(OCC=C(C(F)(F)F)C(F)(F)F)c2ccccc2C1=O
N

Another: Nc1ncc(-c2ccc3ncnc(N4CCc5ccc(Cl)cc54)c3c2)cc1C(F)(F)F
Y

Another: CCOC(=O)c1c(C)nc2c(c1N)/C(=C/c1ccccn1)C(=O)N2Cc1ccccc1
N

Another: CCCCCCCCCCNCCSS(=O)(=O)O
N

Another: COc1ccc(S(=O)(=O)Nc2c(/C=C\c3cc(OC)c(OC)c(OC)c3)ccc(OC)c2O)cc1
Y

Another: C#CC1(O)C(COP(=O)(O)OCC2OC(n3cc(F)c(=O)[nH]c3=O)CC2O)OC(n2ccc(N)nc2=O)C1O (stereo not drawn)
Y

Another: COc1cc2ncnc(Nc3ccc(Oc4ccnc(C)c4)c(C)c3)c2cc1NC(=O)CC1CCSS1 (stereo not drawn)
N

====

Tested on: NCI-H23 lung
PROTOCOL_DESCRIPTION: NCI tumour cell line growth inhibition, 48 h; in the data active = GI50 below about 0.43 µM; inactive = the rest
Lab note: assign the record to one of active, inactive

// known answers, use as guide
Could you check what this test reported for C=C1C(=O)O[C@H]2[C@H]1CC/C(COC(=O)/C=C\C(=O)NCc1ccc(Cn3c(=O)sn(CCI)c3=O)cc1)=C\CC[C@@]1(C)O[C@@H]21 ?
inactive

Another: [N-]=[N+]=NCCCn1c2c(c3ccc([N+](=O)[O-])cc3c1=O)C(=O)c1cc(-c3ccccc3)ccc1-2
inactive

Another: COc1ccc(S(=O)(=O)Nc2c(/C=C\c3cc(OC)c(OC)c(OC)c3)ccc(OC)c2O)cc1
active

Alright, here's another compound for you.
Could you check what this test reported for O=C(/C=C/c1ccccn1)c1ccc(OCc2nnc(-c3ccc(Cl)cc3)o2)cc1 ?
inactive

====

Tested on: NCI-H460 lung
Reported GI50 is given for each of the following molecules.

Can you look up the measured GI50 of Cc1nc2sc3c(N)ncnc3c2c(C)c1C for me?
> 25 µM

***
Can you look up the measured GI50 of COc1cc(-c2nc3ccccc3o2)cc(CN2CCCCC2)c1O for me?
2.84 µM

Another: COc1ccc(-c2cc(-c3ccc(Cl)cc3)nc(NCCCCNc3ccnc4cc(Cl)ccc34)n2)cc1
2.04 µM

Another: COc1ccc(-c2cn(-c3ccc(OC)c(OC)c3)c(=O)[nH]2)cc1
> 100 µM

====

Tested on: HCC-2998 colon
PROTOCOL_DESCRIPTION: NCI tumour cell line growth inhibition, 48 h; in the data active = GI50 below about 0.43 µM; inactive = the rest
Lab note: assign the record to one of class 1 for active, class 0 for inactive

Could you check what this test reported for O=C(/C=C/c1ccccn1)c1ccc(OCc2nnc(-c3ccc(Cl)cc3)o2)cc1 ?
class 0

Another: CCN(CC)CCN1c2nc3ccccc3cc2Sc2cc3ccccc3nc21
class 0

Another: C=C1C(=O)O[C@H]2[C@H]1CC/C(COC(=O)/C=C\C(=O)NCc1ccc(Cn3c(=O)sn(CCI)c3=O)cc1)=C\CC[C@@]1(C)O[C@@H]21
class 0

Another: CCC(=O)N1C/C(=C/c2ccc(Br)cc2)C(=O)/C(=C/c2ccc(Br)cc2)C1
class 0

Another: CCN1C(=O)N(CC)C2C1NN=c1s/c(=C3\C(=O)N(C4CCCC4)c4ccccc43)c(=O)n12 (centres undefined)
class 0

Another: C#C[C@@]1(O)[C@@H](CO)O[C@@H](n2cc(C(F)(F)F)c3c(N)ncnc32)[C@@H]1O
class 1

Another: C[N+](C)(C)c1cc[c]([Sn]([c]2ccc([N+](C)(C)C)cc2)([c]2ccc([N+](C)(C)C)cc2)[c]2ccc([N+](C)(C)C)cc2)cc1
class 0

Another: C/C=C/C(=O)[O-].C/C=C/C(=O)[O-].N.N.N.N.[Co+3].[O-][Cl+3]([O-])([O-])[O-]
class 0

Another: COc1ccc(CNc2nc(NCc3ccc(OC)cc3)nc(NC3CCCC3)n2)cc1
class 0

Another: Cc1ccc(Cl)c(NS(=O)(=O)c2ccc(-c3cnc(C4CC4)o3)cc2)c1
class 1

Another: CCC(C)C1=C(O)[N+]2([O-])Oc3ccc(C4=C(O)C(=O)C(c5ccc(O)cc5)=C(O)C4=O)cc3OC2(C(C)CC)C(=O)N1O (centres undefined)
class 0

Another: O=C1Nc2ccccc2/C1=C\c1nc(-c2ccccc2F)n2ccccc12
class 0

Another: [N-]=[N+]=NCCCn1c2c(c3ccc([N+](=O)[O-])cc3c1=O)C(=O)c1cc(-c3ccccc3)ccc1-2
class 0

Another: Clc1cccc(CNc2c3ccccc3nc3ccccc23)c1
class 0

Data credit: PubChem BioAssay (NCI)
